read-out: Macrophage colony-stimulating factor (MCSF), CSF1 (gene 1435); assay: BSK_hDFCGF_MCSF: BioMAP Diversity Plus: hDFCGF Assay for Macrophage colony-stimulating factor (MCSF) Biomarker Activity (AID 2283060); conditions: primary human foreskin fibroblasts; actives raise or lower the signal
Active and inactive are the calls of the source. How the source made its calls: active means hit-call score of the fitted dose curve at least 0.9, where 1 is the maximum; inactive means score below 0.9.
Classes used: 1.0 = active, 0.0 = inactive

>>> class_name("CC(C)(C)c1cc(O)c(C(C)(C)C)cc1O")
1.0
>>> class_name("CCCCCCCCCCCCCCCCCC(=O)O")
0.0
>>> class_name("CCCCCCCCCCO")
0.0
>>> class_name("Nc1ccc(S(=O)(=O)c2ccc(N)cc2)cc1")
0.0
>>> class_name("CCCCOC(=O)CCCCCCCCC(=O)OCCCC")
0.0
>>> class_name("NCCO")
0.0

----------
read-out: Interleukin-8 (IL8), CXCL8 (gene 3576); experiment: BSK_LPS_IL8: BioMAP Diversity Plus: LPS Assay for Interleukin-8 (IL8) Biomarker Activity (AID 2283078); settings: primary human HUVEC with PBMC; actives raise or lower the signal
Activity calls are given as the source filed them. How the source made its calls: active means hit-call score of the fitted dose curve at least 0.9, where 1 is the maximum; inactive means score below 0.9.
Assay Endpoint: outcome

>>> value_observed("CN1CCCC1=O")
"inactive"
>>> value_observed("COc1ccc(C)cc1N")
"inactive"
>>> value_observed("O=C(OCCCCCOC(=O)c1ccccc1)c1ccccc1")
"inactive"

----------
target: Estrogen receptor (Homo sapiens) (UniProt P03372); experiment: CCTE_Deisenroth_AIME_384WELL_LUC_Inactive: CCTE's 384-well Estrogen Receptor Transactivation Assay without AIME metabolic competence (ERTA luciferase; metabolism negative), Deisenroth Lab (AID 2284038);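 further: VM7Luc4E2 breast cells given medium preincubated 2 h with S9-free microspheres; hits raise estrogen receptor luciferase signal so potencies reflect agonists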
Sequence (P03372 whole entry, looked up): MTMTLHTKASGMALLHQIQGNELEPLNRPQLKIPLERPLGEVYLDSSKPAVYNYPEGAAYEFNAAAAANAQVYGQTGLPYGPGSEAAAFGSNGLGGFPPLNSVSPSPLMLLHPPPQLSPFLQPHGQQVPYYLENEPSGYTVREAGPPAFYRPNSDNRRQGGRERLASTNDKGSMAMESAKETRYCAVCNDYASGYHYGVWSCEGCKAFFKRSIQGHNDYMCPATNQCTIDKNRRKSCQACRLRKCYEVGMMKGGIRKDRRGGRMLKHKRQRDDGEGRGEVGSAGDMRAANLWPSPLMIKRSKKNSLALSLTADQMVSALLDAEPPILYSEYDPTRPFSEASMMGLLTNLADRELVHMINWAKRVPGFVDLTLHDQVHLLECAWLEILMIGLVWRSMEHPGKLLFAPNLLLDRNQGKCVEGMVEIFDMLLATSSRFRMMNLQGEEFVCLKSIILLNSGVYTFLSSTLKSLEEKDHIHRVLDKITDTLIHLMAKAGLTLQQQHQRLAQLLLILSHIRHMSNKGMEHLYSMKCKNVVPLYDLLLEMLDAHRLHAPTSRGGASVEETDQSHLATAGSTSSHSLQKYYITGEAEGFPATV
Results filed as inconclusive are left out. Active and inactive are the calls of the source. How the source made its calls: active means hit-call score of the fitted dose curve at least 0.9, where 1 is the maximum; inconclusive means response in the unintended direction; inactive means score below 0.9.
Assay Endpoint: outcome

>>> value_observed("Cc1cccc([N+](=O)[O-])c1C")
"inactive"
>>> value_observed("CCCc1cc(=O)[nH]c(=S)[nH]1")
"inactive"
>>> value_observed("CCOc1ccc2c(c1)C(C)=CC(C)(C)N2")
"inactive"

----------
read-out: solute carrier (SLC22A1), SLC22A1 (gene 6580); assay: LTEA_HepaRG_SLC22A1: Life Technologies and Expression Analysis (LTEA) Assay for solute carrier (SLC22A1) using HepaRG (AID 2283524); details: mRNA level, 48 h; actives raise or lower the signal
Activity calls are given as the source filed them. How the source made its calls: active means hit-call score of the fitted dose curve at least 0.9, where 1 is the maximum; inactive means score below 0.9.
Classes used: active, inactive

>>> class_name("CC(C)c1ccc(C(=O)N=C(N)N)cc1S(C)(=O)=O")
"active"
>>> class_name("O=C(O)Cc1ccccc1Nc1c(Cl)cccc1Cl")
"inactive"
>>> class_name("Nc1ccc(S(=O)(=O)c2ccc(N)cc2)cc1")
"inactive"
>>> class_name("COCCOC[C@H](CC1(C(=O)NC2CCC(C(=O)O)CC2)CCCC1)C(=O)Oc1ccc2c(c1)CCC2 (some centres undefined)")
"inactive"

----------
experiment: ATG_DR4_LXR_CIS: Attagene CIS-FACTORIAL HepG2 Assay for human Liver X Receptor (LXR), DR4 submotif (AID 2282929); settings: HepG2 Attagene DR4 cis-reporter, mRNA transcription; actives raise or lower the signal
The source made the active and inactive calls. The calls were made as follows: active = hit-call score of the fitted dose curve at least 0.9, where 1 is the maximum; inactive = score below 0.9.
Classes used: active, inactive

>>> class_name("NS(=O)(=O)c1cc2c(cc1Cl)NCNS2(=O)=O")
"inactive"
>>> class_name("O=c1c(O)c(-c2ccc(O)c(O)c2)oc2cc(O)cc(O)c12")
"inactive"
>>> class_name("COc1ccc(S(=O)(=O)N2C(=O)[C@@](c3ccccc3OC)(N3C[C@H](O)C[C@H]3C(=O)N(C)C)c3cc(Cl)ccc32)c(OC)c1")
"active"
>>> class_name("Cc1ccc(N(C)C)cc1")
"inactive"
>>> class_name("CCCc1cc(=O)[nH]c(=S)[nH]1")
"inactive"

Numbers sourced from PubChem BioAssay (EPA / NIEHS).
